Test system: RARg:RXRa (NR concentration 270 nM, RXRa partner concentration 90 nM)
experimentalProtocol: PBM binding z-score (relative to random genomic background probes); higher = stronger binding; sequences stand for … in GC…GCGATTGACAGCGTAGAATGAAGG

>  <macromoleculeSequence>
CGTCAAAGTTCAGCTAAGGTAACGTAAAGCACGC

>  <PBM binding z-score>
4.28

$$$$
>  <macromoleculeSequence>
CCTGCTAGGTCATTGGTCAGCTAAAGCAGCTCGC

>  <PBM binding z-score>
3.88

$$$$
>  <macromoleculeSequence>
CCTCGGACGACAACAGGAGGTCAGAGCTGCCAGA

>  <PBM binding z-score>
1.95

$$$$
>  <macromoleculeSequence>
TAGCCTAGGTCATACGGGCCAGTATAGTGTCGGC

>  <PBM binding z-score>
3.74

$$$$
>  <macromoleculeSequence>
CCGAGTAGTTTATGGGGCATTCAGGCAACGGTGA

>  <PBM binding z-score>
-0.0698

$$$$
>  <macromoleculeSequence>
ACTAGCATGCCAAGTTTGGGTCACTCAAACAAAG

>  <PBM binding z-score>
1.43

$$$$
>  <macromoleculeSequence>
CCTACTGGGCCATCAGGTCATTGAAATCAACGTT

>  <PBM binding z-score>
1.85

$$$$
>  <macromoleculeSequence>
CCATACGGGTCACGAGGTTATAGCACGACGAGCG

>  <PBM binding z-score>
6.02

$$$$
>  <macromoleculeSequence>
GCGACTGGGGCATCAGCAGGTTCCCATAACTTAA

>  <PBM binding z-score>
-0.00118

$$$$
>  <macromoleculeSequence>
TCTATTACTTGAAGGGCAACCGACGAGTCCGTTT

>  <PBM binding z-score>
0.815

$$$$
>  <macromoleculeSequence>
AGTCAAAGTTCCCTAGGTAACGTAAGATTCAGCT

>  <PBM binding z-score>
0.0675

$$$$
>  <macromoleculeSequence>
TAGCCTAGGACATTGGGCCAGTATAGTACGCATC

>  <PBM binding z-score>
-0.0558

$$$$

----------
Test system: FXR:RXRa (NR concentration 270 nM, RXRa partner concentration 90 nM)
experimentalProtocol: PBM binding z-score (relative to random genomic background probes); higher = stronger binding; sequences stand for … in GC…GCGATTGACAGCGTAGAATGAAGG
Class assignment keyed on PBM binding z-score, ranges Low: < 0.5; Medium: ≥ 0.5 and < 4; High: ≥ 4

>  <macromoleculeSequence>
TAGCCTAGGTCATTGGGCCAATATAGTACGCATC

>  <group>
High

$$$$
>  <macromoleculeSequence>
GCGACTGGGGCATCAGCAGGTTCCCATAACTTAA

>  <group>
Low

$$$$
>  <macromoleculeSequence>
TCATATAGGTAAAAAGGTGAAAGTCCGTAAGTTA

>  <group>
Medium

$$$$
>  <macromoleculeSequence>
TCATATAAGTAAACAGGTGAAAGTCCGTAAGTTA

>  <group>
Medium

$$$$
>  <macromoleculeSequence>
ACTAGCATGCCAAGGGTCACTCAAGATTAGTCCG

>  <group>
Medium

$$$$
>  <macromoleculeSequence>
CGAACGAGGGCATCAGTTGATAGCAAATGCCGAT

>  <group>
Low

$$$$
>  <macromoleculeSequence>
AGAACGAGGGCACGCTGAGTTGATAGAAGAGTAG

>  <group>
Medium

$$$$
>  <macromoleculeSequence>
ATCTGTAGGTTACATCCGGGTCATTCAGGCTATG

>  <group>
Medium

$$$$
>  <macromoleculeSequence>
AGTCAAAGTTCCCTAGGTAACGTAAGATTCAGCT

>  <group>
Low

$$$$
>  <macromoleculeSequence>
ACTTACGGGTCAACGAGGTTATAGAACGCGTATA

>  <group>
High

$$$$
>  <macromoleculeSequence>
TCATATAGGTACAGGTGAAAGTCGAACGATATGA

>  <group>
Medium

$$$$
>  <macromoleculeSequence>
ATCTGTAGGTTAAGGGTCATTCAGGTTGGTTCGC

>  <group>
High

$$$$
>  <macromoleculeSequence>
CATACAGGGTCAGCAAGGCCAGAGTAGGGACGGC

>  <group>
High

$$$$
>  <macromoleculeSequence>
CCTTTCGGGTCACTCCAGGTTATAGCATCGGAGT

>  <group>
High

$$$$
>  <macromoleculeSequence>
TCTTGTAGATGAGCAGGTTAAGAAAGCTGGCCAA

>  <group>
Low

$$$$
>  <macromoleculeSequence>
CAAACTAGGTCACGAAAGGTCATAGTCGAATGAC

>  <group>
High

$$$$
>  <macromoleculeSequence>
CGTCCAAGGTCAAAGATCAGTGAAGAGATGACGG

>  <group>
High

$$$$
>  <macromoleculeSequence>
CCTACTGGGCCAAGGTCATTGATCAGTCAAAGCA

>  <group>
Medium

$$$$
>  <macromoleculeSequence>
ACTAGCAGGCCAAGTTTGGGTCACTCAGACAAAG

>  <group>
Low

$$$$
>  <macromoleculeSequence>
TCTTGTAGATCAACTGGAGGTTAAGAAAGATCGA

>  <group>
Low

$$$$
>  <macromoleculeSequence>
CGTCCAAGGTCAAGGTCATTGAAAGAGACTCGAA

>  <group>
High

$$$$
>  <macromoleculeSequence>
CCGACTGGGGCAAGGATACCATAACGCACAGCCA

>  <group>
Low

$$$$
>  <macromoleculeSequence>
ACTACTAGTTGACTTAGGGCAACCGATACGACGC

>  <group>
Low

$$$$
